Every entry's value here was drawn from patent US11034672B1.

Target: HER2 S310F (Homo sapiens, UniProt P04626, S310F)
Construct: expressed in transfected cells; host or cells: BaF3 (murine pro-B)
Sequence (P04626 23-1255 S310F): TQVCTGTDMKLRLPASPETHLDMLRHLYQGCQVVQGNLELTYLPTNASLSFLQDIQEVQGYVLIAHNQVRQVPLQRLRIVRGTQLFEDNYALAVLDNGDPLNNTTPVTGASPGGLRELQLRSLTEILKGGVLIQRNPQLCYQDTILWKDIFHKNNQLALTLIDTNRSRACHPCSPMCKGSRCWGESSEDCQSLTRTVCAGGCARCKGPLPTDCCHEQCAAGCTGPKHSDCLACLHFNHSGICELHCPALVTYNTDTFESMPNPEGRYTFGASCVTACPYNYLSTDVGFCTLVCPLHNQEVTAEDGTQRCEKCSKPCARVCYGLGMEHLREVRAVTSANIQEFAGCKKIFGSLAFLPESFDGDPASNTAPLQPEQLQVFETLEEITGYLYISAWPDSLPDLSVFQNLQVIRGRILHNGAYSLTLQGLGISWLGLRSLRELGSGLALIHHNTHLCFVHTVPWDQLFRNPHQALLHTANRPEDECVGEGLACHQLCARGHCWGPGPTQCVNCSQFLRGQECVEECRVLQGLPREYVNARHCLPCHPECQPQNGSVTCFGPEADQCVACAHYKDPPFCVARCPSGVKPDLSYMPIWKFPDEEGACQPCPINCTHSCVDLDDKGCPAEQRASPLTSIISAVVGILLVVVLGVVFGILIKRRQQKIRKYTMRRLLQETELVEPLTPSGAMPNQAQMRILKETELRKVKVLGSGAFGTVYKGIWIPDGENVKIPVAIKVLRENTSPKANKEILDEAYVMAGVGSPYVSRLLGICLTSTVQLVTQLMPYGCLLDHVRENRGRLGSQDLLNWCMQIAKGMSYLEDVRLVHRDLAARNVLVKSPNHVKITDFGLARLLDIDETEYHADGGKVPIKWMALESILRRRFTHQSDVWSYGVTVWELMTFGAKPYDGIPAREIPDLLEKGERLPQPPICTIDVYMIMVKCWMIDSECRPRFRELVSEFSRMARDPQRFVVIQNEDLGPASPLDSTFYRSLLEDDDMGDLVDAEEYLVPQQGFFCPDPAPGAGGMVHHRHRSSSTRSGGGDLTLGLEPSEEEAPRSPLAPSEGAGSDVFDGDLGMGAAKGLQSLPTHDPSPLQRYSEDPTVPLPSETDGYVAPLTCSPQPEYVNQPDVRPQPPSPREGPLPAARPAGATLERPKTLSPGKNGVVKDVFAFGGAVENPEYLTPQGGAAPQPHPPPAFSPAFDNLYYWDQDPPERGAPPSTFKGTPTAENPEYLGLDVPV
Experiment: Activity for inhibiting HER2 (Table B), HER2 S310F
Format: cell-based
Conditions: read-out: HER2 S310F, potency code (IC50)
# IC50 annotations

[
  {
    "structureAsSmiles": "C=CC(=O)Nc1cc2c(Nc3ccc(OCc4ccccn4)cc3)ncnc2cc1OCCN1CCC(N(C)C)CC1",
    "IC50": "0.05 to 0.1 µM"
  },
  {
    "structureAsSmiles": "C=CC(=O)Nc1cc2c(Nc3ccc(OCc4cnccn4)c(Cl)c3)ncnc2cc1OCCN1CCOCC1",
    "IC50": "0.02 to 0.03 µM"
  },
  {
    "structureAsSmiles": "C=CC(=O)Nc1cc2c(Nc3ccc(OCc4cccc(F)c4)c(Cl)c3)ncnc2cc1O[C@@H]1CCN(C)C1",
    "IC50": "0.03 to 0.05 µM"
  }
]

// next item, IC50 requested
Ask: So what IC50 did `C=CC(=O)Nc1cc2c(Nc3cc(Cl)c(OCc4ccccn4)cc3F)ncnc2cc1OCCN1CCOCC1` get with HER2 S310F (Homo sapiens, UniProt P04626, S310F)?
Reply: 0.01 to 0.02 µM

* * *

Target: HER2 WT (Homo sapiens, UniProt P04626)
Sequence (P04626 23-1255): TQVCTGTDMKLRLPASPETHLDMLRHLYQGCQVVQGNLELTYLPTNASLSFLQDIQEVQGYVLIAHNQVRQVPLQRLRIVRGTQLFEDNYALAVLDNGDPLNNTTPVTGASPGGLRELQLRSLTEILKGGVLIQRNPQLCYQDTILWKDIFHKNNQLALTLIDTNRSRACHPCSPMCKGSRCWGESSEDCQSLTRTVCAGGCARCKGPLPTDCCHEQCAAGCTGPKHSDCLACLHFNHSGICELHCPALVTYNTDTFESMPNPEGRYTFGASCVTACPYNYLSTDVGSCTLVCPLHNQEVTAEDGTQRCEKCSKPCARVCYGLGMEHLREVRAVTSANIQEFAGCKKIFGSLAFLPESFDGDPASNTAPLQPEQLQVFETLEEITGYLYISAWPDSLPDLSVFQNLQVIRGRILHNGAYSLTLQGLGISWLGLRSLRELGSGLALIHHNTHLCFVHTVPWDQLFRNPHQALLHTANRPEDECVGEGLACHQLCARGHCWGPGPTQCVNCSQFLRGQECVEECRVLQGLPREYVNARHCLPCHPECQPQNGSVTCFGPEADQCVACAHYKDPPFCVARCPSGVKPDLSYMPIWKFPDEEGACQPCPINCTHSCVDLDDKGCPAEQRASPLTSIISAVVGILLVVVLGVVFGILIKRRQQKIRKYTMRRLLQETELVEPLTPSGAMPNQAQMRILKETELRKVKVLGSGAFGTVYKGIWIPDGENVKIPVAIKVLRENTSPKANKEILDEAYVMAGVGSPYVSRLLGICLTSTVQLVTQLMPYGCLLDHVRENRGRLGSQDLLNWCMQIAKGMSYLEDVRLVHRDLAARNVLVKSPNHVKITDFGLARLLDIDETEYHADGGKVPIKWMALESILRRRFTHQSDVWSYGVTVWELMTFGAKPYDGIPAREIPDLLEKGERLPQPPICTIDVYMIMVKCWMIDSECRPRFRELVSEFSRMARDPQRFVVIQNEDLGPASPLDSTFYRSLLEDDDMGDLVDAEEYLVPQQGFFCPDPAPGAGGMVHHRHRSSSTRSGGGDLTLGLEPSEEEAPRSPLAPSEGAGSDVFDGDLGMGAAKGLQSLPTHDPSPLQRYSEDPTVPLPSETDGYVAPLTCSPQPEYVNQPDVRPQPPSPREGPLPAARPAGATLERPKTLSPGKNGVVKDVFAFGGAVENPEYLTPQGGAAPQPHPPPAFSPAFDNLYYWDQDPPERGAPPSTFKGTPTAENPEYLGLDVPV
Test: Activity for inhibiting HER2 (Table B), HER2 WT
Assay type: cell-based
Conditions: text lists of compounds; read-out: IC50 value for inhibiting wild-type HER2
pIC50: −log10 of the molar value.
readout: pIC50

[
  {
    "compound": "C=CC(=O)Nc1cc2c(Nc3ccc(OCc4ccccn4)c(Cl)c3)ncnc2cc1OCCN(C)C",
    "studyTarget": "HER2 WT (Homo sapiens, UniProt P04626)",
    "pIC50": "≥ 8.00"
  },
  {
    "compound": "C=CC(=O)Nc1cc2c(Nc3ccc(OCc4ccccn4)c(Cl)c3)ncnc2cc1C#CC(C)(C)N1CCN(C)CC1",
    "studyTarget": "HER2 WT (Homo sapiens, UniProt P04626)",
    "pIC50": "≥ 7.70"
  },
  {
    "compound": "C=CC(=O)Nc1cc2c(Nc3ccc(OCc4ccccn4)c(Cl)c3)ncnc2cc1OC1CCN(C)C1 (stereo not shown)",
    "studyTarget": "HER2 WT (Homo sapiens, UniProt P04626)",
    "pIC50": "≥ 8.30"
  }
]

Ask: Using the record for C=CC(=O)Nc1cc2c(Nc3ccc(OCc4ccccn4)c(Cl)c3)ncnc2cc1OCCN1CCC(OC)C1 (stereo not shown) , report its pIC50.
Reply: ≥ 8.30

Ask: Using the record for `C=CC(=O)Nc1cc2c(Nc3ccc(OCc4ccccn4)c(Cl)c3)ncnc2cc1OCCN1CCN(C)CC1` , report its pIC50.
Reply: ≥ 8.00

Ask: Using the record for `C=CC(=O)Nc1cc2c(Nc3ccc(OCc4ccccn4)c(Cl)c3)ncnc2cc1OCCN1CC2CCC(C1)O2` , report its pIC50.
Reply: ≥ 7.70

Ask: Using the record for `C=CC(=O)Nc1cc2c(Nc3ccc(OCc4ccccn4)c(Cl)c3)ncnc2cc1OCCN(C)CC` , report its pIC50.
Reply: ≥ 8.30

* * *

Biological target: HER2 YVMA (Homo sapiens, UniProt P04626, INS775YVMA)
Construct: expressed in transfected cells; host or cells: BaF3 (murine pro-B)
Sequence (P04626 with tags, fused parts or gaps INS775YVMA): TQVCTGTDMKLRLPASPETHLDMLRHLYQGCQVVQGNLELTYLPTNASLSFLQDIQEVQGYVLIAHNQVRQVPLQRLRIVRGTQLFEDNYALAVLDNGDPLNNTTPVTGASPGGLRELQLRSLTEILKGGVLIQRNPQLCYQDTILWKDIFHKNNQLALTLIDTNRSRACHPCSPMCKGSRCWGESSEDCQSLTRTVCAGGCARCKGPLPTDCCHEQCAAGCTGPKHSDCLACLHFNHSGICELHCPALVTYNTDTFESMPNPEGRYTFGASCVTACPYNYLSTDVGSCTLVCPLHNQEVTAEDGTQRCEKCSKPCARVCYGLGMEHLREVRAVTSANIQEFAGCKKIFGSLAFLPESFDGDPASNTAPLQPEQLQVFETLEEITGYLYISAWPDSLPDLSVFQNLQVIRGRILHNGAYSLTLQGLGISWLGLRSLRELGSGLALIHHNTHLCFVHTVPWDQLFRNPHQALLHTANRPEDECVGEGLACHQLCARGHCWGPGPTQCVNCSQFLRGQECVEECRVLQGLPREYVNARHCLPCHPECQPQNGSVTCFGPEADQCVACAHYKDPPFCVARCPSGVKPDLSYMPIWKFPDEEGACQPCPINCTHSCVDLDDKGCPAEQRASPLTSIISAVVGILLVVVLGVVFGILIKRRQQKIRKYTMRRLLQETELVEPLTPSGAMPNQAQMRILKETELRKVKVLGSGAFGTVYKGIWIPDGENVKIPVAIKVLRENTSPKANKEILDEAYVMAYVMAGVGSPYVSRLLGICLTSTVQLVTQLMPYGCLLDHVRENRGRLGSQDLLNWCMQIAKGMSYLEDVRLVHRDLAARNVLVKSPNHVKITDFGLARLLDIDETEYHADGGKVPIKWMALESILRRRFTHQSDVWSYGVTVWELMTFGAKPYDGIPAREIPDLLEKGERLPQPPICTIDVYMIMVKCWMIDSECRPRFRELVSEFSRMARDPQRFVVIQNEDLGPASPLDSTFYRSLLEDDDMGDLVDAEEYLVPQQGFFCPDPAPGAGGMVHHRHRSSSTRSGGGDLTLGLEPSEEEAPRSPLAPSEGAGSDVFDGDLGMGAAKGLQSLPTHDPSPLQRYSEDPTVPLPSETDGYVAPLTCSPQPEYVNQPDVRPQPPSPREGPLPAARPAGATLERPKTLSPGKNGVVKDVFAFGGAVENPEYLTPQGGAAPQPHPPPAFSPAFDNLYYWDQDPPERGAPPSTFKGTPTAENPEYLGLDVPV
Experiment: BaF3 cell proliferation assay, HER2 YVMA (Table B)
Type: cell-based
Settings: potency code, 3 days, CellTiterGlo, read-out: HER2 YVMA (Activity for Inhibiting HER2)
readout: IC50

[
  {
    "compound": "C=CC(=O)Nc1cc2c(Nc3ccc(OCc4cnccn4)c(Cl)c3)ncnc2cc1OCCCN1CC(OC)C1 [compound 179]",
    "IC50": "30 to 50 nM"
  },
  {
    "compound": "COC/C=C/C(=O)Nc1cc2c(Nc3ccc(OCc4ccccn4)c(Cl)c3)ncnc2cc1OCCN1CCOCC1 [compound 112]",
    "IC50": "> 1000 nM"
  },
  {
    "compound": "C=CC(=O)Nc1cc2c(Nc3ccc(OCc4ccccn4)c(Cl)c3)ncnc2cc1OCCN1CCC(N(C)C)CC1 [compound 76]",
    "IC50": "100 to 200 nM"
  }
]

Ask: Using the record for C=CC(=O)Nc1cc2c(Nc3ccc(Oc4ccc(C)nc4)c(C)c3)ncnc2cc1C#C[C@@H]1[C@H]2CN(C)C[C@@H]12 [compound 104] , report its IC50.
Reply: 30 to 50 nM

Ask: Using the record for C=CC(=O)Nc1cc2c(Nc3ccc(OCc4cccc(F)n4)c(Cl)c3)ncnc2cc1OCCN1CC(OC)C1 [compound 157] , report its IC50.
Reply: 300 to 500 nM

Ask: Using the record for CC#CC(=O)Nc1cc2c(Nc3cc(Cl)c(OCc4cccc(F)c4)cc3F)ncnc2cc1OCCCN1CC(OC)C1 [compound 136] , report its IC50.
Reply: 100 to 200 nM

Ask: Using the record for C=CC(=O)Nc1cc2c(Nc3ccc(OCc4ccccn4)cn3)ncnc2cc1OC1CCN(C)C1 (stereo not drawn) [compound 61] , report its IC50.
Reply: > 1000 nM

Ask: Using the record for C=CC(=O)Nc1cc2c(Nc3ccc(OCc4cccc(F)c4)c(Cl)c3)ncnc2cc1O[C@@H]1CCN(C)C1 [compound 141] , report its IC50.
Reply: 300 to 500 nM

* * *

Target: HER2 YVMA (Homo sapiens, UniProt P04626, INS775YVMA)
Construct: expressed in transfected cells; host or cells: BaF3 (murine pro-B)
Test: Activity for inhibiting HER2 (Table B), HER2 YVMA
Type: cell-based
Conditions: read-out: HER2 YVMA, potency code (IC50)
# IC50 annotations

Recorded IC50, per entry:
[
  {
    "compound": "CC#CC(=O)Nc1cc2c(Nc3ccc(OCc4cnccn4)c(Cl)c3)ncnc2cc1OCCCN1CCOCC1",
    "IC50": "10 to 20 nM"
  },
  {
    "compound": "C=CC(=O)Nc1cc2c(Nc3ccc(OCc4ccccn4)c(Cl)c3)ncnc2cc1C#CC1CCCN1 (centres unmarked)",
    "IC50": "100 to 200 nM"
  }
]

// next item, IC50 requested
Ask: Using the record for `C=CC(=O)Nc1cc2c(Nc3ccc(Oc4ccc(Cl)c(F)c4)cc3)ncnc2cc1OCCN1CCOCC1` , report its IC50.
Reply: > 1000 nM

* * *

# pIC50 annotations
Molecular target: HER2 S310F (Homo sapiens, UniProt P04626, S310F)
Construct: expressed in transfected cells; host or cells: BaF3 (murine pro-B)
Assay: Activity for inhibiting HER2 (Table B), HER2 S310F
Type: cell-based
Settings: read-out: HER2 S310F, potency code (IC50)
pIC50: −log10 of the molar value.

Recorded pIC50, per entry:
[
  {
    "structureAsSmiles": "C=CC(=O)Nc1cc2c(Nc3ccc(OCc4ccccn4)c(Cl)c3)ncnc2cc1OCCN1CC(OC)C1",
    "pIC50": "7.70 to 8.00"
  },
  {
    "structureAsSmiles": "CC#CC(=O)Nc1cc2c(Nc3cc(Cl)c(OCc4cccc(F)c4)cc3F)ncnc2cc1OCCN1CC2CCC(C1)O2",
    "pIC50": "7.52 to 7.70"
  },
  {
    "structureAsSmiles": "C=CC(=O)Nc1cc2c(Nc3ccc(OCc4ccccn4)c(Cl)c3)ncnc2cc1OCCN(C)CC",
    "pIC50": "7.70 to 8.00"
  }
]

Ask: So what pIC50 did `C=CC(=O)Nc1cc2c(Nc3ccc(OCc4ccccn4)nc3)ncnc2cc1O[C@@H]1CCN(C)C1` get with HER2 S310F (Homo sapiens, UniProt P04626, S310F)?
Reply: 6.30 to 6.52

* * *

# pIC50 annotations
Target: HER2 S310F (Homo sapiens, UniProt P04626, S310F)
Construct: expressed in transfected cells; host or cells: BaF3 (murine pro-B)
Assay: BaF3 cell proliferation assay, HER2 S310F (Table B)
Assay type: cell-based
Conditions: potency code, 3 days, CellTiterGlo, read-out: HER2 S310F (Activity for Inhibiting HER2)
pIC50: −log10 of the molar value.

[
  {
    "compound": "C=CC(=O)Nc1cc2c(Nc3ccc(OCc4cccnn4)c(Cl)c3)ncnc2cc1OCCCN1CC(OC)C1",
    "valueMeasured": "7.70 to 8.00"
  },
  {
    "compound": "C=CC(=O)Nc1cc2c(Nc3ccc(OCc4ccccn4)c(Cl)c3)ncnc2cc1OCCCN1CC(OC)C1",
    "valueMeasured": "7.70 to 8.00"
  },
  {
    "compound": "C=CC(=O)Nc1cc2c(Nc3ccc(OCc4ccccn4)c(Cl)c3)ncnc2cc1C#C[C@@H]1CCCN1C",
    "valueMeasured": "7.30 to 7.52"
  }
]

Ask: Using the record for C=CC(=O)Nc1cc2c(Nc3ccc(OCc4ccccn4)c(Cl)c3)ncnc2cc1C#CC1[C@H]2CNC[C@@H]12 (some centres unmarked) , report its pIC50.
Reply: 7.30 to 7.52

Ask: Using the record for C=CC(=O)Nc1cc2c(Nc3cc(Cl)c(OCc4ccccn4)cc3F)ncnc2cc1OC1CCN(C)C1 (centres unmarked) , report its pIC50.
Reply: 7.52 to 7.70

Ask: Using the record for `C=CC(=O)Nc1cc2c(Nc3ccc(OCc4cccc(F)n4)c(Cl)c3)ncnc2cc1OCCN1CC(OC)C1` , report its pIC50.
Reply: 7.30 to 7.52
